experiment: qHTS assay for small molecule activators of the heat shock response signaling pathway - cell viability counter screen (AID 743209); conditions: HSE-bla HeLa viability, CellTiter-Glo luminescence, 5 h; series mostly up to 62.6 µM; note: nearly all actives have a fitted effect of over 50% in size
Inconclusive results are not listed. The source made the active and inactive calls. Calls come from the whole dose curve; as a rule, active = well fitted cell-killing curve with a large enough effect in the repeat runs; inconclusive = weak or mixed curves, or effect the other way; inactive = no such curve, though single readings can be large or run the other way.
Labels: active, inactive

* Cc1cc(OCCOCC[N+](C)(C)Cc2ccccc2)ccc1C(C)(C)CC(C)(C)C | active
* C=C(C)C1CC=C(C)C(OC(C)=O)C1 (centres undefined) | inactive
* CC1COC(=O)O1 (centres undefined) | inactive
* O=C1CC2(CCCC2)CC(=O)N1CCCCN1CCN(c2ncccn2)CC1 | inactive
* O=C(Cl)c1cccc(C(=O)Cl)c1 | inactive
* Cc1cccc2n[nH]nc12 | inactive
* CCn1cc(C(=O)O)c(=O)c2cc(F)c(N3CCNC(C)C3)c(F)c21 (centres undefined) | inactive
* Cc1ccnc2c1NC(=O)c1cccnc1N2C1CC1 | inactive
* CC(C)(C)NC(=O)[C@@H]1CN(Cc2cccnc2)CCN1C[C@@H](O)C[C@@H](Cc1ccccc1)C(=O)N[C@H]1c2ccccc2C[C@H]1O | inactive
* NC12CC3CC(CC(C3)C1)C2 | inactive
* [Cl][In]([Cl])[Cl] | inactive
* CCCC(=O)c1ccccc1 | inactive
* C=CC(=O)OCCCCCCCC | inactive
* CCN(CC)C(=O)Nc1ccc(OCC(O)CNC(C)(C)C)c(C(C)=O)c1 (centres undefined) | inactive
* CC(=O)OCCOCCOCCOC(C)=O | inactive
* c1cc(C(c2ccc(OCC3CO3)cc2)C(c2ccc(OCC3CO3)cc2)c2ccc(OCC3CO3)cc2)ccc1OCC1CO1 (centres undefined) | inactive
* CC(C)(C)NCC(O)COc1ccccc1OCC1CCCO1 (centres undefined) | inactive
* CC1=C(C=O)C(C)(C)CC=C1 | inactive
* NNCCc1ccccc1 | inactive
* O=C(Oc1ccccc1)c1ccccc1O | inactive
* CC(=O)CC(C)=O | inactive
* O=Cc1ccc(Cl)cc1 | inactive
* CCC(C)(C)C(=O)O[C@H]1C[C@@H](C)C=C2C=C[C@H](C)[C@H](CC[C@@H]3C[C@@H](O)CC(=O)O3)[C@H]21 | active
* C=C(C)C(=O)O | inactive
* CCc1ccc(C(c2ccc(CC)cc2)C(Cl)Cl)cc1 | inactive
* O=Nc1ccc(Nc2ccccc2)cc1 | active
* C#CC(C)(CC)OC(=O)c1ccccc1C(=O)O (centres undefined) | inactive
* Cc1c(O)cccc1C(=O)N[C@@H](CSc1ccccc1)[C@H](O)CN1C[C@H]2CCCC[C@H]2C[C@H]1C(=O)NC(C)(C)C | inactive
* N[C@@H]1CONC1=O | inactive
* O=C(O)CCc1ccccc1 | inactive
* C[N+]1([O-])CCOCC1 | inactive
* COc1ccc(COC(C)=O)cc1 | inactive
* Cc1cc(C(C)(C)C)c(O)c(C(C)(C)C)c1 | inactive
* CCN(CC)C(=S)SSC(=S)N(CC)CC | inactive
* O=C(O)Cn1cnnn1 | inactive
* CCCCCC(=O)O[C@]1(C(C)=O)CC[C@H]2[C@@H]3CCC4=CC(=O)CC[C@]4(C)[C@H]3CC[C@@]21C | inactive
* CCCCCCCCCCCCCCCCCl | inactive
* c1ccc2c(c1)CCCC2C1=NCCN1 (centres undefined) | inactive
* COC(=O)c1cccc(C(=O)OC)c1 | inactive
